assaySummary: xn = mol fraction of the nth substance listed
conditionParameters: 338.15 K; 100 kPa; Liquid; Vibrating tube method; x1 = 0.25
Numbers after ± are expanded uncertainties.
Quick list: mass density per entry.
I'd appreciate it if you included the unit after the number.

{"compound": "CCCCCCCC[P+](CC)(CC)CC.O=[N+]([O-])c1cn[n-]c1 [triethyloctylphosphonium 4-nitropyrazolide] + CCCCCC[n+]1ccn(C)c1.O=S(=O)([N-]S(=O)(=O)C(F)(F)F)C(F)(F)F", "mass density": "1251.5 ± 12 kg/m3"}
{"compound": "CCCCCCn1cc[n+](C)c1.O=[N+]([O-])c1cn[n-]c1 [1-hexyl-3-methylimidazolium 4-nitropyrazolide] + CCCCCCCCCCCCCC[P+](CCCCCC)(CCCCCC)CCCCCC.O=S(=O)([N-]S(=O)(=O)C(F)(F)F)C(F)(F)F", "mass density": "1042.9 ± 4 kg/m3"}
{"compound": "CCCCCCn1cc[n+](C)c1C.O=[N+]([O-])c1cn[n-]c1 [1-hexyl-2,3-dimethylimidazolium 4-nitropyrazolide] + CCCCCCCCCCCCCC[P+](CCCCCC)(CCCCCC)CCCCCC.O=S(=O)([N-]S(=O)(=O)C(F)(F)F)C(F)(F)F", "mass density": "1043 ± 12 kg/m3"}

## Input Assign mass density to the following record: CCCCCCCC[P+](CC)(CC)CC.O=[N+]([O-])c1cn[n-]c1 [triethyloctylphosphonium 4-nitropyrazolide] + CCCCCCn1cc[n+](C)c1C.O=S(=O)([N-]S(=O)(=O)C(F)(F)F)C(F)(F)F
## Output 1245.8 ± 12 kg/m3
